Taken from the supplement of paper PMC9112550.

tested on: Escherichia coli TOP10; assay: shrunken log2 fold change of peptide-encoding DNA abundance (4.5 h post-induction vs induction); higher = less antimicrobial activity (less host growth inhibition); conditions: time post-induction: 4.5 h; library: site-saturation at positions 5, 18, 19, 20
Exercise: state measured shrunken log2 fold change for each of the sequences provided.
Answers are plain numbers.

Solved cases below.
| seq_string | property_measured | reading |
| --- | --- | --- |
| RRIRTRPPRLPRPRPRPCECPRP | shrunken log2 fold change | 0.0538 |
| RRIRHRPPRLPRPRPRPTRTPRP | shrunken log2 fold change | 0.365 |
| RRIRDRPPRLPRPRPRPNMDPRP | shrunken log2 fold change | -0.491 |
| RRIRRRPPRLPRPRPRPLQEPRP | shrunken log2 fold change | 0.019 |
| RRIRRRPPRLPRPRPRPRNLPRP | shrunken log2 fold change | -0.0397 |
| RRIRHRPPRLPRPRPRPMSDPRP | shrunken log2 fold change | 0.00234 |
| RRIRVRPPRLPRPRPRPSAVPRP | shrunken log2 fold change | -0.0662 |
| RRIRTRPPRLPRPRPRPICEPRP | shrunken log2 fold change | 0.0143 |

Your task in this section: give shrunken log2 fold change for each listed record.
1. RRIRTRPPRLPRPRPRPCCLPRP
2. RRIRARPPRLPRPRPRPFYFPRP

Result:
1. 0.096
2. 0.00316

// for each sequence below, give its shrunken log2 fold change
1. RRIRWRPPRLPRPRPRPGNTPRP
2. RRIRGRPPRLPRPRPRPFQNPRP
3. RRIRCRPPRLPRPRPRPTHCPRP
4. RRIRTRPPRLPRPRPRPFKWPRP
5. RRIRWRPPRLPRPRPRPYLKPRP
6. RRIRKRPPRLPRPRPRPEGAPRP
7. RRIRYRPPRLPRPRPRPQYGPRP
8. RRIRSRPPRLPRPRPRPGYQPRP

Result:
[-0.348, 0.31, 0.363, -0.121, -0.911, 1.54, -0.161, -0.147]

Give shrunken log2 fold change for all sequences that follow.
1. RRIRLRPPRLPRPRPRPWQAPRP
2. RRIRWRPPRLPRPRPRPYSKPRP
3. RRIRQRPPRLPRPRPRPGQDPRP
4. RRIRCRPPRLPRPRPRPPSRPRP
5. RRIRWRPPRLPRPRPRPPEEPRP
6. RRIRIRPPRLPRPRPRPPFLPRP
7. RRIRGRPPRLPRPRPRPLIEPRP
8. RRIRYRPPRLPRPRPRPFIIPRP

Result:
1: 0.226; 2: -0.492; 3: 0.102; 4: 0.558; 5: 1.26; 6: -0.0978; 7: 0.801; 8: -1.23

Each sequence below has a recorded value; state its shrunken log2 fold change.
1. RRIRPRPPRLPRPRPRPEHTPRP
2. RRIRYRPPRLPRPRPRPKEYPRP
3. RRIRARPPRLPRPRPRPNGTPRP

Result:
[-0.112, 0.171, 0.021]

----------
I'd appreciate it if you could supply shrunken log2 fold change values for the items below.
test system: Escherichia coli TOP10; experiment: shrunken log2 fold change of peptide-encoding DNA abundance (4.5 h post-induction vs induction); higher = less antimicrobial activity (less host growth inhibition); details: time post-induction: 4.5 h; library: site-saturation at positions 5, 18, 19, 20;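 also: peptides expressed intracellularly from a pBAD plasmid library in pooled LB shake-flask culture, induced with 0.3% L-arabinose, DNA abundance read by NGS, three biological replicates, DESeq2 with apeglm shrinkage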

| seq_string | shrunken log2 fold change |
| --- | --- |
| RRIRGRPPRLPRPRPRPPYYPRP | -0.0196 |
| RRIRQRPPRLPRPRPRPCCFPRP | 0.0639 |
| RRIRSRPPRLPRPRPRPYEIPRP | -0.0474 |
| RRIRIRPPRLPRPRPRPEFIPRP | -0.00702 |
| RRIRDRPPRLPRPRPRPLIAPRP | 0.468 |

Report shrunken log2 fold change for each item below.
1. RRIRERPPRLPRPRPRPCNYPRP
2. RRIRWRPPRLPRPRPRPKNVPRP
3. RRIRWRPPRLPRPRPRPPCLPRP
4. RRIRPRPPRLPRPRPRPHRYPRP
5. RRIRERPPRLPRPRPRPETPPRP
6. RRIRIRPPRLPRPRPRPGNAPRP

Result:
[-0.746, -0.0641, 0.186, -0.136, 0.784, -0.0762]

Okay, here is my list. What is shrunken log2 fold change for each of these?
1. RRIRSRPPRLPRPRPRPVDQPRP
2. RRIRYRPPRLPRPRPRPGGKPRP
3. RRIRPRPPRLPRPRPRPQQCPRP
4. RRIRWRPPRLPRPRPRPYQKPRP

Result:
[0.034, 0.0336, -0.462, -0.0398]

I need shrunken log2 fold change for every entry listed below, if you could help.
1. RRIRCRPPRLPRPRPRPAEGPRP
2. RRIRMRPPRLPRPRPRPCVIPRP
3. RRIRMRPPRLPRPRPRPPSNPRP
4. RRIRFRPPRLPRPRPRPVMRPRP
5. RRIRHRPPRLPRPRPRPQMPPRP
6. RRIRKRPPRLPRPRPRPFCPPRP
7. RRIRVRPPRLPRPRPRPCLVPRP
8. RRIRSRPPRLPRPRPRPESQPRP

Result:
[0.14, -0.04, 0.104, 0.518, -0.232, 0.0562, -0.115, 0.0194]

Give shrunken log2 fold change for each of the items listed below.
1. RRIRDRPPRLPRPRPRPHCIPRP
2. RRIRVRPPRLPRPRPRPWYAPRP
3. RRIRSRPPRLPRPRPRPGELPRP
4. RRIRHRPPRLPRPRPRPNDTPRP
5. RRIRYRPPRLPRPRPRPHRKPRP

Result:
-0.00742
-0.299
0.0807
-0.933
-0.501

Dear colleague, could you send me shrunken log2 fold change for each of the items below? Thanks.
1. RRIRKRPPRLPRPRPRPWSDPRP
2. RRIRWRPPRLPRPRPRPKKKPRP
3. RRIRIRPPRLPRPRPRPAHSPRP
4. RRIRIRPPRLPRPRPRPAIEPRP
5. RRIRRRPPRLPRPRPRPPWQPRP

Result:
-0.0989
-0.139
-0.0596
-0.0797
2.01

Respectfully, I request shrunken log2 fold change for each entry included below.
1. RRIRIRPPRLPRPRPRPTNKPRP
2. RRIRDRPPRLPRPRPRPWFCPRP
3. RRIRDRPPRLPRPRPRPMARPRP
4. RRIRNRPPRLPRPRPRPWPSPRP
5. RRIRCRPPRLPRPRPRPLMLPRP

Result:
[-0.687, -0.272, 0.0954, 0.0756, -0.646]

Can you give me shrunken log2 fold change for all of these, one by one?
1. RRIRVRPPRLPRPRPRPQLTPRP
2. RRIRRRPPRLPRPRPRPSFEPRP
3. RRIRCRPPRLPRPRPRPDEPPRP
4. RRIRNRPPRLPRPRPRPKLMPRP

Result:
[-0.0141, 0.234, 0.189, -0.109]

For every item in the list below, what is its measured shrunken log2 fold change?
1. RRIRFRPPRLPRPRPRPNAIPRP
2. RRIRQRPPRLPRPRPRPLRAPRP
3. RRIRKRPPRLPRPRPRPPNTPRP
4. RRIRSRPPRLPRPRPRPKGRPRP
5. RRIRRRPPRLPRPRPRPYDCPRP
6. RRIRARPPRLPRPRPRPFMDPRP
7. RRIRARPPRLPRPRPRPTGHPRP
8. RRIRIRPPRLPRPRPRPSKIPRP

Result:
[-0.322, 0.825, 0.408, 0.0764, -0.113, 0.00846, -0.132, -0.441]
